FYI, the data here is from the supplement of paper PMC6555819.

// reported PBM binding z-score for each item listed
- Test system: PPARa:RXRa (NR concentration 270 nM, RXRa partner concentration 90 nM)
- test_details: PBM binding z-score (relative to random genomic background probes); higher = stronger binding; sequences stand for … in GC…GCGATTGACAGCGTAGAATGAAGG
Note: the reply should be a number with no unit written.

// known answers, use as guide
residue_string	PBM binding z-score
CAAACTAGGTCACGAAAGGTCAAAGGCGAATGAC	6.78
GCAGACAGGTGAAACGCATGTAACTCAGGGTGGC	0.825
AGAACGAGGGCAATGAGTTGATTGCACGGGTGGC	1.23
CCAGACAGGTGAGAAGGTAACTTAGCCTCGATTA	0.501
GTACCAAGGCGAATAGGTCGTTGATGAGTAGGCG	0.351
TTACCAAGGTGAGCTGATGTCGTTGATCCAACTC	0.344

Asked: Recorded PBM binding z-score of ACTAGCAGGCCAAGTTCGGGTCACTCAAACAAAG , please.
Given back: 2.45

Asked: And the next one, ACTCGGAGGACAAAGGTCAGAGCCACGCCAGTGA ?
Given back: 5.36

Asked: And the next one, CCGACTCGGGCAGAAAGGTTACCATACCATCCGG ?
Given back: 1.97

Asked: And the next one, CTACCGAGGTGAACAAGGTCGTTGATTACTATTC ?
Given back: 3.16

Asked: And the next one, CCTACTGGGCCACAAAGGTCATTGATGCCGATAA ?
Given back: 5.25

====

- Test system: LXRa:RXRa (NR concentration 270 nM, RXRa partner concentration 90 nM)
- test_details: PBM binding z-score (relative to random genomic background probes); higher = stronger binding; sequences stand for … in GC…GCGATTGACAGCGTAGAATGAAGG
I would appreciate it if you labelled entries Satisfied when PBM binding z-score is 2 or higher, otherwise Not satisfied.

As a guide, the following entries are already answered.
residue_string	cat
ACTAGTTGGTCAGCTGAAGTCACACACAATTCGG	Not satisfied
TCTAGTTGGTCAGGGAGGTCACACACGACGGGTA	Satisfied
GTACCAAGGTGAATAGGTCGTTGCTGAGTAGGCG	Not satisfied

Asked: Quick check, PBM binding z-score >= 2? ATCGAAAGGTCGACGAGGTGAGGATACACCGTTT
Given back: Satisfied

Asked: And the next one, CCTATTAGTTGACCATAAGGACAACCGAAGCTCG ?
Given back: Not satisfied

Asked: And the next one, CTACCAAGGAGAACAAGGTCGTTGATTACTATTC ?
Given back: Not satisfied

Asked: And the next one, AGGCAAAGTTCAGGACGAGGTAACGTAAAGCACG ?
Given back: Satisfied

Asked: And the next one, CCAGACAGGTTAGAAGGTAACTCAGCCTCGATTA ?
Given back: Not satisfied

Asked: And the next one, ATCTCTAGGTAAGACTCAGTGCAGTGAAGAACGC ?
Given back: Not satisfied

Asked: And the next one, GATACAGGGTCAGCTAGAGGCCAGCGTATGGAAA ?
Given back: Satisfied

Asked: And the next one, CAGCCTAGGTCAGGGGCAGTATAGGAGGAACGTT ?
Given back: Not satisfied

Asked: And the next one, CTCGAAAGGACGGTTGAGGTGAGTATACGGATAA ?
Given back: Not satisfied

Asked: And the next one, TAGCCTAGGTCAGATCAGGCCAGTATACGCTATA ?
Given back: Not satisfied

Asked: And the next one, CGTCCAAGGTCAGAGGAGGTCAGTGAAGACAGAT ?
Given back: Satisfied
